In this section we review reported Ki values for a set of compounds.
- STUDY SYSTEM: CDK7/cyclinH/MAT1 trimeric complex (Homo sapiens, UniProt P50613)
- Sequence (P50613 whole entry): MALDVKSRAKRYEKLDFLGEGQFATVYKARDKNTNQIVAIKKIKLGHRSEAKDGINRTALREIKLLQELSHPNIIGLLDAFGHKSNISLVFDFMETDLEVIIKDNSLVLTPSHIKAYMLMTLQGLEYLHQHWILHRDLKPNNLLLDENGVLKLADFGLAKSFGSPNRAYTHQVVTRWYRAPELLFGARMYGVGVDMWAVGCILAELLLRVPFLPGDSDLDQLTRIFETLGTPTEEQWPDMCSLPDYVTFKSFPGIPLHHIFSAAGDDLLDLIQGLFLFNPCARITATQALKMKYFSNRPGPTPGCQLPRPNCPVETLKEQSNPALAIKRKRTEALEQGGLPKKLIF
- Sequence (P51946 whole entry partner): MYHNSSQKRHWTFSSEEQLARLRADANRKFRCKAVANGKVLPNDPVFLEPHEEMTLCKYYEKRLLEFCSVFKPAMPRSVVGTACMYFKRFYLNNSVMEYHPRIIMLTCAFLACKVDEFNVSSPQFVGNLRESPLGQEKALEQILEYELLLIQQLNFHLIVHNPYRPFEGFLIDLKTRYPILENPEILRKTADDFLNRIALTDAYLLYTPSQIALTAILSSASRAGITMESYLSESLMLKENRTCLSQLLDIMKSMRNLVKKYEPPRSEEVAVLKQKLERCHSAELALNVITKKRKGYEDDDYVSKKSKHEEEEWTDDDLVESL
- Sequence (P51948 whole entry partner): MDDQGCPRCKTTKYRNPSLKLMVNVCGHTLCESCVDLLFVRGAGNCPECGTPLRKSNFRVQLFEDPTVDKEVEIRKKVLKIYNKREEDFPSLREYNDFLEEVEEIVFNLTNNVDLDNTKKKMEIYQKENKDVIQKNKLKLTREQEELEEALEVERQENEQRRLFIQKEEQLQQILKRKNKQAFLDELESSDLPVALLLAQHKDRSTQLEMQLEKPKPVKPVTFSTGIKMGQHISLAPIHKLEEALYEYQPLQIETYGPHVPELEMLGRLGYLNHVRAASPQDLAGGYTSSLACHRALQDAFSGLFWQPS
- PROTOCOL DETAILS: In vitro CDK7 assay, potency of irreversible covalent inhibitors (kinact/KI), coupled PK/LDH ADP readout at 340 nm
- CONDITION CONTEXT: CDK7 (20 nM enz.) (KI, μM), 20 nM enzyme
Use µM as the unit, but write only the number.

# COMPOUND, STUDY SYSTEM, VALUE
data = [
    ("CC#CC(=O)N1CC(N2CC(c3cc4c(c(C)n3)O[C@H](C)c3c(N5CCOCC5)ccnc3N4)C2)C1 (single isomer, unassigned) [Compound 440]", "CDK7/cyclinH/MAT1 trimeric complex (Homo sapiens, UniProt P50613)", 0.205),
    ("C=CC(=O)Nc1ccc(C(=O)Nc2ccc3c(c2)Nc2nccc(C4CCOCC4)c2CO3)cc1", "CDK7/cyclinH/MAT1 trimeric complex (Homo sapiens, UniProt P50613)", 0.0456),
    ("CC#CC(=O)N1CC(n2cc(-c3cc(C#N)c4c(c3)Nc3nccc(N5CCOCC5)c3C(C)O4)cn2)C1 (stereo not shown)", "CDK7/cyclinH/MAT1 trimeric complex (Homo sapiens, UniProt P50613)", 0.0223),
    ("C=CC(=O)N1CC(N2CC[C@@H](c3cc4c(c(C)n3)O[C@H](C)c3c(N5CCOCC5)ccnc3N4)C2)C1 (single isomer, unassigned) [Compound 319]", "CDK7/cyclinH/MAT1 trimeric complex (Homo sapiens, UniProt P50613)", 0.047),
    ("CC#CC(=O)N1CCC(N2CC(c3cc4c(c(C#N)n3)OCc3c(-c5cnn(C)c5)ccnc3N4)C2)C1 (stereo not shown)", "CDK7/cyclinH/MAT1 trimeric complex (Homo sapiens, UniProt P50613)", 0.0408),
    ("C=CC(=O)N1CCC(N2CC(c3cc(Cl)c4c(c3)Nc3nccc(C5CCOCC5)c3CO4)C2)CC1", "CDK7/cyclinH/MAT1 trimeric complex (Homo sapiens, UniProt P50613)", 0.0507),
]

Next up:
Task item: Need Ki, item CC#CC(=O)N1CC[C@H](N2CCC(c3cc4c(c(C)n3)OCc3c(-c5cnn(C)c5)ccnc3N4)CC2)C1 (single isomer, unassigned)
Reply: 0.111
